Molecular target: Keap1 Kelch Domain (KDD) (Homo sapiens, UniProt Q14145)
Construct: poly-His tag with TEV protease cleavable linker (N)
Test: KD (nM)
Property: Kd; scope: individual substances
Answer in nM, number only, no unit symbol.

SUBSTANCE	MEASURED ENDPOINT	UOM	REPORTED
Y* D A E T G E C (YDAETGEC; not fully specified; modified tyrosine Y*; KKD(6X)-m2) [SEQ ID NO: 251 | KKD(6X)-m2]	Kd	nM	40

Short answer for Y* D I E T G E C (YDIETGEC; not fully specified; modified tyrosine Y*; KKD(6X)-m1) [SEQ ID NO: 250 | KKD(6X)-m1] : Kd was 43
